tested on: S. cerevisiae Burl-1 ts mutant growth, BacTiter-Glo, 38.5C 24 h; test: restored growth of temperature-sensitive Burl-1 yeast – whole organism, S. cerevisiae, Burl-1 ts mutant, luminescence, counter-screen for SUMOylation pathway inhibitor project, dose response (AID 463199)
Active and inactive are the calls of the source.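 The calls were made as follows: active = AC50, the dose giving half-maximal effect, exceeds a fixed cutoff for a compound that rescues yeast growth under heat; inactive = the rest, inconclusive results apart.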
Parameter call: string, one of active, inactive

Prompt: GET /call?item= Cc1c(Cl)cccc1NC(=O)Cn1c(CCC(=O)O)ccc1-c1ccccc1 returns the recorded outcome of this test.
Completion: inactive

Prompt: Moving on to the next molecule: CN(C)CCOC(c1ccc(Cl)cc1)c1ccccn1 (stereo unspecified)
Completion: inactive

Prompt: Moving on to the next molecule: COc1ccc(NC(=O)C2CCCN2S(=O)(=O)c2cccc3cccnc23)cc1OC (stereo unspecified)
Completion: inactive

Prompt: Moving on to the next molecule: O=C(C1CCCN(S(=O)(=O)c2cnc[nH]2)C1)N1CCN(c2ccc(Cl)cc2)CC1 (stereo unspecified)
Completion: inactive

Prompt: Moving on to the next molecule: CCC1=Nc2cc(C(=O)NCc3ccco3)ccc2Sc2ccccc21
Completion: inactive

Prompt: Moving on to the next molecule: Cc1sc2ncnc(N3CCC(C(=O)NNC(=O)COc4ccccc4F)CC3)c2c1C
Completion: inactive

Prompt: Moving on to the next molecule: Cc1nc(N/N=C\c2ccc3c(c2)OCO3)sc1C
Completion: inactive

Prompt: Moving on to the next molecule: COc1ccccc1CCNC(=O)/C(=C/c1cccnc1)NC(=O)c1ccccc1
Completion: inactive

Prompt: Moving on to the next molecule: O=C(O)c1ccc(COc2c(F)c(F)cc(F)c2F)cc1
Completion: inactive

Prompt: Moving on to the next molecule: CC(C)(C)C(=O)NC1CCN(CC(=O)Nc2ccc3c(c2)OCO3)CC1
Completion: inactive

Prompt: Moving on to the next molecule: Cc1ccccc1-n1ncc2c([N+](=O)[O-])cc([N+](=O)[O-])cc21
Completion: inactive

Prompt: Moving on to the next molecule: Cc1cccc(N/N=C/c2c(O)[nH]c(=S)[nH]c2=O)c1
Completion: inactive

Prompt: Moving on to the next molecule: COc1ccc(C)cc1NC(=O)Cn1c(=O)oc2ccccc21
Completion: inactive

Prompt: Moving on to the next molecule: O=C(CCSc1ccccc1)NNC(=O)c1ccccc1F
Completion: inactive

Prompt: Moving on to the next molecule: CCOc1ccc(Br)cc1CNCCN1CCOCC1
Completion: inactive

Prompt: Moving on to the next molecule: Cc1ccc(-n2nnnc2SCC#N)cc1
Completion: inactive

Prompt: Moving on to the next molecule: COC(=O)C1=C(C)NC(C)=C([N+](=O)[O-])C1c1ccccc1C(F)(F)F (stereo unspecified)
Completion: inactive

Prompt: Moving on to the next molecule: O=C(CP(=O)(c1ccccc1)c1ccccc1)N1CCOCC1
Completion: inactive

Prompt: Moving on to the next molecule: CN(C)CCCN(Cc1ccccc1)C(=S)Nc1ccc(F)c(Cl)c1
Completion: inactive

Prompt: Moving on to the next molecule: COc1ccc(OCC(=O)Nc2ccc(C)cc2)cc1
Completion: inactive

Prompt: Moving on to the next molecule: CCc1ccccc1NC(=S)NNC(=O)c1ccccc1Cl
Completion: inactive

Prompt: Moving on to the next molecule: CC(=O)Nc1ccc(S(=O)(=O)Nc2cccc(-c3ccc4nncn4n3)c2)cc1
Completion: inactive

Prompt: Moving on to the next molecule: Cc1n[nH]c(C)c1S(=O)(=O)N(CC(=O)NC1CCCC1)c1ccc(C(C)C)cc1
Completion: active

Prompt: Moving on to the next molecule: O=C(c1ccccc1F)N1CCN=C1SCc1cccnc1
Completion: inactive

Prompt: Moving on to the next molecule: Cc1ccccc1Nc1c([N+](=O)[O-])ccc2c1=NC1(CCCCC1)N=2
Completion: inactive

Prompt: Moving on to the next molecule: COC(=O)C(NC(C)=O)(Nc1nc2ccc(S(C)(=O)=O)cc2s1)C(F)(F)F (stereo unspecified)
Completion: inactive

Prompt: Moving on to the next molecule: CCCCC1=CC2=CC(=O)C(C)(OC(=O)CC)C(=O)C2=CN1CCCOC(C)C (stereo unspecified)
Completion: inactive

Prompt: Moving on to the next molecule: Cc1c(NC(=O)CN2C(=O)NC(C)(c3ccc(OC(F)F)cc3)C2=O)c(=O)n(-c2ccccc2)n1C (stereo unspecified)
Completion: inactive

Prompt: Moving on to the next molecule: Nc1ccc(N2CCN(c3ccc(F)cc3)CC2)cc1
Completion: inactive

Prompt: Moving on to the next molecule: O=C(CCCc1nc(-c2ccc(Cl)cc2)no1)NC1CCCCC1
Completion: inactive

Prompt: Moving on to the next molecule: COc1ccc(S(=O)(=O)NC(C)C(=O)NCc2ccccn2)cc1Cl (stereo unspecified)
Completion: inactive

Prompt: Moving on to the next molecule: N#Cc1cccc(NC(=O)CSc2n[nH]c(=O)[nH]c2=O)c1
Completion: inactive

Prompt: Moving on to the next molecule: O=C(OCc1nnc(-c2ccccc2)o1)c1ccc([N+](=O)[O-])o1
Completion: inactive

Prompt: Moving on to the next molecule: O=C(CCc1ccccc1)NNC(=S)Nc1ccc(F)cc1
Completion: inactive

Prompt: Moving on to the next molecule: CC1c2cc3c(cc2CCN1CC(=O)Nc1ccccc1)OCCCO3 (stereo unspecified)
Completion: inactive

Prompt: Moving on to the next molecule: CN(CC(=O)N1CCc2[nH]c3ccc(F)cc3c2C1)CC1OCCO1
Completion: inactive

Prompt: Moving on to the next molecule: NC1=NC2(CCCC2)N=C(Nc2ccccc2)N1
Completion: inactive

Prompt: Moving on to the next molecule: CC(=O)C1(c2ccccc2)CCNCC1
Completion: inactive

Prompt: Moving on to the next molecule: Cc1ccc(NC(=O)CN(C)C(=O)c2cccc(Br)c2)cc1
Completion: inactive

Prompt: Moving on to the next molecule: Cc1ccc(Oc2ccccc2NC(=O)C2=COCCO2)cc1
Completion: inactive

Prompt: Moving on to the next molecule: Cc1nc(N)c(Cc2ccccc2F)c(N)n1
Completion: inactive

Prompt: Moving on to the next molecule: O=Cc1ccccc1OCCN1CCCC1=O
Completion: inactive

Prompt: Moving on to the next molecule: C=C(C)Cn1c(SCC(=O)N/N=C/c2ccccc2OCC(=O)O)nnc1-c1ccc(Br)cc1
Completion: inactive

Prompt: Moving on to the next molecule: CN(C)c1cccc(C(=O)Nc2cc(C(F)(F)F)ccc2-n2cnc3ccccc32)c1
Completion: inactive

Prompt: Moving on to the next molecule: N#CC1=C(N)Oc2n[nH]c(CSc3ccccc3)c2C12C(=O)Nc1ccccc12 (stereo unspecified)
Completion: inactive

Prompt: Moving on to the next molecule: O=C(CSc1cccc2cccnc12)Nc1cc(C(=O)O)cc(C(=O)O)c1
Completion: inactive
